- Tested on: OVCAR-5
- Assay text: NCI tumour cell line growth inhibition, 48 h
Active and inactive are the calls of the source. Rule as the data show it: active = GI50 up to about 1.1 µM and inactive = higher.
Possible outcomes: active, inactive

>>> group("Cc1c2oc3c(C)cnc(C(=O)NC4C(=O)NC(C(C)C)C(=O)N5CCCC5C(=O)N(C)CC(=O)N(C)C(C(C)C)C(=O)OC4C)c3nc-2c(C(=O)NC2C(=O)NC(C(C)C)C(=O)N3CCCC3C(=O)N(C)CC(=O)N(C)C(C(C)C)C(=O)OC2C)c(N)c1=O (configuration not stated)")
"inactive"
>>> group("COc1cc2c(cc1OCc1ccccc1)CNCC2")
"inactive"
>>> group("CCn1ncc2c(=O)n3ncn(-c4ccc(Br)cc4)c3nc21")
"inactive"
>>> group("C=CCN(c1cc(OCc2ccccc2)c2c(c1)c(C)cn2S(=O)(=O)c1ccccc1)S(C)(=O)=O")
"inactive"
>>> group("NCCCOc1ccc([N+](=O)[O-])cc1Cl")
"inactive"
>>> group("ClC(Cl)=C(Cl)C1(Cl)CC1COCc1ccccc1 (configuration not stated)")
"inactive"
>>> group("COC(=O)C(C/C=C(\\C)c1ccc(Cl)cc1)C(C)=O (configuration not stated)")
"inactive"
>>> group("COC(=O)C1Cc2c(C)cccc2C1=O (configuration not stated)")
"inactive"
>>> group("N#CCCN(CCC#N)c1ccc(/C=C2\\N=C(c3ccccc3)N(NC(=O)c3ccncc3)C2=O)cc1")
"inactive"
>>> group("CCN(CC)c1ccc(C2NC(=O)c3ccccc3N2)cc1 (configuration not stated)")
"inactive"
>>> group("CC12CCC([C@H](N3CCOCC3)/C1=N\\OCCN1CCCC1)C2(C)C (some centres not stated)")
"inactive"
>>> group("Clc1ccc(Cc2nc3ccccc3o2)cc1")
"inactive"
>>> group("CCOC(=O)/C=C\\c1c(Cl)n(-c2ccccc2)c(=O)n(-c2ccccc2)c1=O")
"inactive"
>>> group("COC(=NC(C)C)NC(C)C")
"inactive"
>>> group("COc1ccc2c(c1OC)C(Br)CCC(Br)(Br)C2=O (configuration not stated)")
"inactive"
>>> group("CC(C)(C)OC(=O)NCCC1SC2C=CC1C2 (configuration not stated)")
"inactive"
>>> group("Nc1ccc2ccc(-c3ccc[nH]3)nc2n1")
"inactive"
>>> group("O=C1c2cc3c(cc2CC12Cc1ccc4c(c1C2=O)CCCC4)CCCC3 (configuration not stated)")
"inactive"
>>> group("CCNC(=S)N/N=C(/C)c1cccc(/C(C)=N\\NC(=S)NCC)n1")
"active"
>>> group("COc1ccc(C2=NN(c3ccccc3)C[N+](c3ccc(C)cc3)=N2)cc1")
"inactive"
>>> group("Cc1cccc2c1CC1(Cc3c(C)cccc3C1=O)C2=O")
"inactive"
>>> group("Cc1cc2c(C)nn(Cc3ccccc3Cl)c2c(C#N)c1C")
"inactive"
